Assay: Cell Viability - LYMP2-009 (AID 968);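 note: cells exposed to compound for 24 h at 37 °C; nearly all actives have a fitted effect of over 55% in size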
Details: LYMP2-009 lymphoblastoid cell viability; series mostly up to 92.2 µM
Results filed as inconclusive are left out. Activity calls are given as the source filed them. Calls come from the whole dose curve; as a rule, active = well fitted cell-killing curve with a large enough effect; inconclusive = small, poorly fitted or top-dose-only effect; inactive = flat fitted curve, though single readings scatter.
Give your call using only these classes: active, inactive

Solved cases (8 shown):
{"compound": "CC(C#N)CCC#N (configuration not stated)", "classification": "inactive"}
{"compound": "Nc1ccc(Oc2ccc(N)cc2)cc1", "classification": "inactive"}
{"compound": "C=CCOCC1CO1 (configuration not stated)", "classification": "inactive"}
{"compound": "CN(C)N=O", "classification": "inactive"}
{"compound": "Nc1cc(Cl)cc(C(=O)O)c1Cl", "classification": "inactive"}
{"compound": "CC(=O)NNc1ccccc1", "classification": "inactive"}
{"compound": "CCCCCC[N+](=O)[O-]", "classification": "inactive"}
{"compound": "CC12CC1(C)C(=O)N(c1cc(Cl)cc(Cl)c1)C2=O (configuration not stated)", "classification": "inactive"}

Query: What did the test return for "O=C(O)C(Br)Br" ?
Result: inactive

Query: What did the test return for CC(C)CC(C)N (configuration not stated) ?
Result: inactive

Query: What did the test return for "COC(=O)Nc1nc2ccccc2[nH]1" ?
Result: inactive

Query: What did the test return for "CC(C)(Cl)[N+](=O)[O-]" ?
Result: inactive

Query: What did the test return for "Cc1cc(-c2ccc(N)c(C)c2)ccc1N" ?
Result: inactive
